Below, each entry is listed with its recorded TGI.
- Test system: KM12 colon
- Assay summary: NCI tumour cell line growth inhibition, 48 h

- Compound: "COc1ccc(NC(=O)C(=O)Cc2nc3ccc([N+](=O)[O-])cc3[nH]c2=O)c(OC)c1"
  Target system: "KM12 colon"
  TGI: "> 100 µM"

Observed TGI on KM12 colon, entry "CCOC(=O)C1=C(C(=O)c2ccc(C)cc2)C(c2cccc([N+](=O)[O-])c2)C(C(=O)c2ccc(C)cc2)=C(C(=O)OCC)N1" , equals 25.4 µM

KM12 colon data for CC(=O)N[C@@H]1C(O)CN2C(=O)C(=O)O[C@H](C(O)CO)[C@@H]12 (stereo partly specified) ; its TGI: > 100 µM

Short answer on KM12 colon for "CCC(=O)O[C@H]1CC[C@H]2[C@@H]3CC[C@H]4CC(=O)[C@H](C)C[C@]4(C)[C@H]3CC[C@]12C" , TGI: > 100 µM

Per the reported KM12 colon data, "COc1ccc2c(c1)/C(=C\c1cccnc1)C(=O)N2" has TGI of 57.8 µM

Lab entry: KM12 colon assay, compound "NC(=S)N/N=C\c1ccc(OCc2cccc(COc3ccc(/C=N/NC(N)=S)cc3)n2)cc1" , TGI = > 100 µM

Reported TGI (KM12 colon) for entry COc1ccccc1/C=C1\CCC(CCN(C)C)(C2=CCCC2)C1=O (stereo unspecified) is 33 µM

Lab entry: KM12 colon assay, compound "O=c1[nH]c(=O)n([C@@H]2C[C@H](CO)[C@H](O)C2)cc1/C=C/Br" , TGI = > 100 µM

Tested on KM12 colon, the item "N=C1N(S(=O)(=O)c2ccccc2)[C@@H](Cc2ccccc2)[C@H](c2ccccc2)C1(c1ccccc1)c1ccccc1" showed TGI equal to > 100 µM

The value of TGI recorded for CC(C)CNCC(O)COc1ccc(C(C)(C)c2ccc(OCC(O)CNCC(C)C)cc2)cc1 (stereo unspecified) when tested on KM12 colon reads 7.41 µM

Observed TGI, KM12 colon, COc1cc2c(cc1OCCCC(=O)Nc1cc(C(=O)Nc3cc(C(=O)Nc4cc(C(=O)NCCCN(C)C)n(C)n4)n(C)n3)n(C)n1)N=CC1CCCN1C2=O (stereo unspecified) : 47 µM

Form field TGI for item "COc1ccc(N2Cc3cnc(Nc4ccccc4)nc3N([C@@H]3CC[C@@H](O)C3)C2=O)cc1" on KM12 colon: > 25 µM

Bench note, KM12 colon: CCCCC1CC(c2cccc([N+](=O)[O-])c2)=NO1 (stereo unspecified) , TGI reads > 100 µM

---

Reported values of TGI for individual entries
- Tested on: SNB-19 CNS
- Assay summary: NCI tumour cell line growth inhibition, 48 h

- Compound: "Cn1nc(-c2ccccc2)c(C(=O)/C=C/c2ccc(F)cc2)c(N2CCCCC2)c1=O"
  TGI: "55.4 µM"

// field: TGI; key: "CN1CCN(c2c(Cl)cc(Cl)c3[nH]c4ccccc4c(=O)c23)CC1" ; value = 19.7 µM

compound "COc1ccc2c(c1)/C(=C\c1cccnc1)C(=O)N2" , TGI observed: 51.6 µM

// field: TGI; key: COC1=CC(=O)C2C(C1=O)[C@@H]1c3ccccc3C[C@H]21 (some centres not stated) ; value = > 100 µM

Record "CCCn1c(SC)nc(COC(=O)NC)c1COC(=O)NC" . Reported TGI: > 100 µM

So, "C/C(=C\c1ccccn1)c1ccccn1" ? Its TGI was > 100 µM

For this compound ( "CCCCc1cc2c(C)cc(=O)oc2c(O)c1O" ), measured TGI is > 100 µM

Note to self: TGI recorded for O=C(c1ccccc1)C1CCCCN1C(=O)c1ccccc1 (configuration not stated) was > 100 µM

Documented TGI of "CC(C)=CCC[C@@H](C)C1=C(Nc2ccccc2Cl)C(O)=C(C)C(=O)C1=O" : 26.8 µM

Entry [Cl][Pt+2][Cl].[NH-]C1CCCCC1[NH-] (configuration not stated) — recorded TGI = > 100 µM

Reported TGI of Cc1ccc(C(=O)O)c(CC2Cc3c(C)cccc3C2=O)c1 (configuration not stated) : > 100 µM

Documented TGI of CCc1c(Cc2cccc3ccccc23)n2c(nc1=O)SCC2OCCO (configuration not stated) : > 100 µM

Record "Cc1ccncc1.F[B-](F)(F)F.[Pt+2].c1ccc(-c2cccc(-c3ccccn3)n2)nc1" . Reported TGI: > 66.7 µM

Input "COc1ccc2c(c1)C(N)=C(c1ccccc1)C2=O" . Output TGI: > 100 µM

Noted for "Oc1cc(O)c(Oc2cccc(O)c2O)c(O)c1" : its TGI reads > 100 µM

Record COc1cc2c(cc1OCCCC(=O)Nc1cc(C(=O)Nc3cc(C(=O)Nc4cc(C(=O)NCCCN(C)C)n(C)n4)n(C)n3)n(C)n1)N=CC1CCCN1C2=O (configuration not stated) , field TGI: 54.4 µM

Record "O=[N+]([O-])c1ccc(S[C@@H]2[C@H]3c4c(-c5ccccc5)[nH]c(-c5ccccc5)c4[C@@H]2C[C@H]3Cl)cc1" . Reported TGI: > 100 µM

These measurements were taken from PubChem BioAssay (NCI).
